# target_or_system: Adenosine receptor A2b (Homo sapiens) (UniProt P29275)
# Sequence (whole entry): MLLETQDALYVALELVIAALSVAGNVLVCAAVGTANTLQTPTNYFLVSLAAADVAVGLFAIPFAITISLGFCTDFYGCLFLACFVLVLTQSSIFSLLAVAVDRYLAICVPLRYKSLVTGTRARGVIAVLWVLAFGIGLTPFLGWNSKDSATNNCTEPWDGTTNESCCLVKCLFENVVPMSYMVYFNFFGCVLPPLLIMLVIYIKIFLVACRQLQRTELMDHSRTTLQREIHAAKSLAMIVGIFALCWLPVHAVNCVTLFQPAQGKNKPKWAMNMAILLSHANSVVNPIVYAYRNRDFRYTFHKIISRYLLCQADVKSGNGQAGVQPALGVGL
# experimental_details: Displacement of [3H]DPCPX from human adenosine A2b receptor expressed in HEK293 cells at 10 uM after 30 mins
# Assay type: cell-based
Activity calls are given as the source filed them. The rule behind the calls is not given here.

| item_smiles | inhibition |
| --- | --- |
| Cc1nc2c(=O)n(Cc3ccccc3)nc(-c3ccncc3)c2c2cc(-c3ccccc3)nn12 | inactive |
| Cc1nn(Cc2ccccc2)c(=O)c2nc(C)n3nccc3c12 | < 50% |
| CCc1nc2c(=O)n(Cc3ccccc3)nc(-c3ccc(F)cc3)c2c2cc(-c3ccccc3)nn12 | inactive |
| Cc1nc2c(=O)n(Cc3ccccc3)nc(-c3cccc(F)c3)c2c2cc(-c3ccsc3)nn12 | inactive |
| CCc1nc2c(=O)n(Cc3ccccc3)nc(-c3cccc(F)c3)c2c2cc(-c3ccsc3)nn12 | inactive |
| O=c1c2ncn3nc(-c4ccccc4)cc3c2c(-c2cccnc2)nn1Cc1ccccc1 | inactive |
| O=c1c2ncn3nc(-c4ccccc4)cc3c2c(-c2ccncc2)nn1Cc1ccccc1 | inactive |
| O=c1c2ncn3nc(-c4ccsc4)cc3c2c(-c2ccc(F)cc2)nn1Cc1ccccc1 | inactive |
| O=c1c2nc(C(F)(F)F)n3nc(-c4ccccc4)cc3c2c(-c2ccc(F)cc2)nn1Cc1ccccc1 | inactive |
| Cc1nn(Cc2ccccc2)c(=O)c2nnn3nc(-c4ccccc4)cc3c12 | < 50% |
| CC(C)c1nc2c(=O)n(Cc3ccccc3)nc(-c3ccccc3)c2c2cc(-c3ccccc3)nn12 | inactive |
| CCCc1nc2c(=O)n(Cc3ccccc3)nc(-c3ccncc3)c2c2cc(-c3ccccc3)nn12 | inactive |
| Cc1nc2c(=O)n(Cc3ccccc3)nc(-c3cccnc3)c2c2cc(-c3ccccc3)nn12 | inactive |
| CCc1nc2c(=O)n(Cc3ccccc3)nc(-c3ccncc3)c2c2cc(-c3ccccc3)nn12 | inactive |
| Cc1nc2c(=O)n(Cc3ccccc3)nc(Cl)c2c2cc(-c3ccccc3)nn12 | < 50% |
| O=c1c2ncn3nc(-c4ccccc4)cc3c2c(-c2cccc(F)c2)nn1Cc1ccccc1 | inactive |
